Where these numbers come from: ChEMBL document CHEMBL1148068

Test system: B16
Experiment: Cytotoxicity against mouse B16 cells after 72 hrs by MTT assay
Format: functional, cell-based
Settings: B16, 72 h
Property: IC50; scope: individual molecules
Respond numerically; units are µg/mL and should not be typed.

# example entries with known answers
C/C=C/C(O)C/C=C/CC(C)C(O)CC(=O)NCC(O)C(C)C(=O)NCCCC1OC2(CCCC(CCC(C)/C=C(\C)C(C)O)O2)CCC1C (stereo unspecified) [BISTRAMIDE K] : 1.9
C/C=C/[C@H](O)CC1CCC(C)C(CC(=O)NCC(O)C(C)C(=O)NCCCC2OC3(CCCC(CCC(C)/C=C(\C)C(C)O)O3)CCC2C)O1 (stereo partly specified) [BISTRAMIDE D] : 0.1
Sc1ncnc2nc[nH]c12 [MERCAPTOPURINE ANHYDROUS] : 0.8

Report IC50 from B16 testing of C/C=C/C(=O)C[C@H]1CC[C@H](C)[C@H](CC(=O)NC[C@H](O)[C@H](C)C(=O)NCCC[C@H]2O[C@@]3(CCC[C@@H](CC[C@H](C)/C=C(\C)C(C)=O)O3)CC[C@@H]2C)O1 [BISTRAMIDE C]
0.06

Report IC50 from B16 testing of CCCC(=O)CC1CCC(C)C(CC(=O)NCC(O)C(C)C(=O)NCCCC2OC3(CCCC(CCC(C)/C=C(\C)C(C)O)O3)CCC2C)O1 (stereo unspecified) [BISTRAMIDE B]
1.2

Report IC50 from B16 testing of C/C=C/C(=O)C[C@H]1CC[C@H](C)[C@H](CC(=O)NC[C@H](O)[C@H](C)C(=O)NCCC[C@H]2O[C@@]3(CCC[C@H](CC[C@H](C)/C=C(\C)[C@H](C)O)O3)CC[C@@H]2C)O1 [BISTRAMIDE A]
0.1
